- Target system: HLA-B*15:02
- Test protocol: IEDB peptide-MHC binding, purified MHC/direct/fluorescence; filed as Kd, often an IC50 or EC50 that approximates it; bounds were set here for any values at or beyond the usual limits of such assays
- Assay setup: source organism: dengue virus type 4
Measured property: Kd

Suppose we examine the sequence `AQEDDQYVF` ; what Kd value has been reported?
≥ 20 µM

###

- Target system: HLA-B*07:02
- Test protocol: IEDB peptide-MHC binding, purified MHC/competitive/fluorescence; bounds were set here for any values at or beyond the usual limits of such assays
- Assay setup: source organism: Vaccinia virus
pIC50: −log10 of the molar value.
What pIC50 was measured for each of the following?

Suppose we examine the sequence `EPPLVRHAC` ; what pIC50 value has been reported?
≤ 3.79

Another sequence to look at: `FLRYLLFGI`
≤ 3.00
